meta.source: paper PMC12186255

System: PC3
Experiment: Cell line drug profiling, CellTiter Glo
Type: cell-based
Details: Homo sapiens, PC-3; PC3, Prostate, 72 h
measure: IC50 (µM)

1) O=C(Nc1ccc(N2CCC(Cc3ccccc3)CC2)cc1C(=O)O)c1ccccc1Cl
19.7

###

Test system: FG
Test: Cell line drug profiling, CellTiter Glo
Type: cell-based
Conditions: Homo sapiens, Pancreatic, 72 h
pIC50: −log10 of the molar value.
measure: pIC50

1. O=C(Nc1ccc(N2CCC(Cc3ccccc3)CC2)cc1C(=O)O)c1ccccc1Cl
< 4.30
2. COC(=O)c1nc(-c2ccc(OC)cc2)nc(O)c1O
< 4.30
3. Cc1cccc(N2CCN(c3ccc(NS(=O)(=O)c4ccccc4)c(C(=O)O)c3)CC2)c1C
4.56

###

The compounds listed here are annotated with their pIC50.
Test system: OVCAR-3
Experiment: Cell line drug profiling, CellTiter Glo
Assay type: cell-based
Conditions: Homo sapiens; OVCAR-3, Ovarian, 72 h
pIC50: −log10 of the molar value.
measure: pIC50

1. O=C(Nc1ccc(N2CCC(Cc3ccccc3)CC2)cc1C(=O)O)c1ccccc1Cl [F685]
5.24
2. Cc1cccc(N2CCN(c3ccc(NS(=O)(=O)c4ccccc4)c(C(=O)O)c3)CC2)c1C [F684]
4.96

###

System: SK-MEL-28
Assay: Cell line drug profiling, CellTiter Glo
Assay type: cell-based
Conditions: Homo sapiens; SK-MEL-28, Melanoma, 72 h
pIC50: −log10 of the molar value.
measure: pIC50

1) Cc1cccc(N2CCN(c3ccc(NS(=O)(=O)c4ccccc4)c(C(=O)O)c3)CC2)c1C
4.42
2) O=C(Nc1ccc(N2CCC(Cc3ccccc3)CC2)cc1C(=O)O)c1ccccc1Cl
4.33

###

Molecular target: EXO1 (Homo sapiens, UniProt Q9UQ84)
Construct: made in house
Test: FRET-based EXO1 exonuclease activity assay, dose-response
Type: biochemical
Conditions: nick substrate, 30 min, 37 °C
measure: IC50

1) Cc1c(Cl)cccc1NCc1cc(=O)n2nc(-c3ccc(C(C)(C)C)cc3)nc2[nH]1
8 µM

###

Molecular target: EXO1 (Homo sapiens)
Construct: made in house
Sequence (Q9UQ84 1-846): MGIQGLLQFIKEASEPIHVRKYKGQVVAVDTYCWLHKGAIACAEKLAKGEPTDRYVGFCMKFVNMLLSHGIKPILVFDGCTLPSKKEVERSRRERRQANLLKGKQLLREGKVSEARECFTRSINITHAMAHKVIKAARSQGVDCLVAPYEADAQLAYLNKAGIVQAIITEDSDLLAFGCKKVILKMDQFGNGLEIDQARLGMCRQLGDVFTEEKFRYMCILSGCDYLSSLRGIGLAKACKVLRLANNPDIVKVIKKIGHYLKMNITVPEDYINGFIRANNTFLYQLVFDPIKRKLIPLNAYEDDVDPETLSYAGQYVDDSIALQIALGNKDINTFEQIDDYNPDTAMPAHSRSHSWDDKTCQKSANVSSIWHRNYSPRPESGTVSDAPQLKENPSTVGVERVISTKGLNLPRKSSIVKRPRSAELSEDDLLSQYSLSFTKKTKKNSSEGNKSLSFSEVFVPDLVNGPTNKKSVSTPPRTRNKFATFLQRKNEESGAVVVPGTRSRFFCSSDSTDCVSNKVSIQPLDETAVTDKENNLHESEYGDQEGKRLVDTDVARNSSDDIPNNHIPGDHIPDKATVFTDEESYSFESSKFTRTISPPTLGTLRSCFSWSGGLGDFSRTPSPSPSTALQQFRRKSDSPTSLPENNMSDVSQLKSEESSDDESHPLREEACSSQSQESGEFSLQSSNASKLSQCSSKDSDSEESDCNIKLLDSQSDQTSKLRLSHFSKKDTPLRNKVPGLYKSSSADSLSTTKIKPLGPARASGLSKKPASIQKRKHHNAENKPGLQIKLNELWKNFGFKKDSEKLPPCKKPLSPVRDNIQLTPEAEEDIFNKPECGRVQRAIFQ
Test: Inhibitor kinetics by FRET-based EXO1 assay (Michaelis-Menten, Lineweaver-Burk)
Assay type: biochemical
Settings: kinetic assays; read-out: IC50 of each compound, used as fixed inhibitor concentration
pIC50: −log10 of the molar value.
measure: pIC50

1. COC(=O)c1nc(-c2ccc(OC)cc2)nc(O)c1O
5.70
